# System: OVCAR-3 ovarian
# protocol_summary: NCI tumour cell line growth inhibition, 48 h; in the data active = GI50 below about 0.43 µM; inactive = the rest
Outcomes: active, inactive

1. O=[N+]([O-])c1ccc(N2CCN(Cc3ccccc3)CC2)c2c1no[n+]2[O-]
inactive
2. Oc1ccc2ccccc2c1C=NCCCN=Cc1c(O)ccc2ccccc12
inactive
3. CCC1=C(C)/C(=C/c2[nH]c(C)c(C(=O)CCCCC(=O)OC)c2C)N=C1c1ccc[nH]1
inactive
4. O=C1/C(=C/c2cccc([N+](=O)[O-])c2)COc2ccc(O)c(O)c21
inactive
5. CN1CCN(Cc2ccc(-c3cc4ncnc(Nc5ccc(OCc6cccc(F)c6)c(Cl)c5)c4s3)o2)CC1
inactive
6. COC(=O)/C=C/c1cc(O)c2c(c1)C(C(=O)OC)C(c1ccc(O)c(O)c1)O2 (centres undefined)
active
7. COc1ccc(C(=O)Cn2c(C(=O)c3ccc(OC)cc3)nc3ccccc32)cc1
inactive
8. CCc1ccc(-c2nnc(COc3ccc(-c4nc5ccc(C)cc5[nH]4)cc3OC)o2)cc1
inactive
9. CCNC(=O)C[C@@H]1N=C(c2ccc(Cl)cc2)c2cc(OC)ccc2-n2c(C)nnc21
inactive

----------
# Tested on: HS 578T breast
# protocol_summary: NCI tumour cell line growth inhibition, 48 h
TGI reference
assay_metric: TGI (µM)

1. CCC/C(=N\NC(=S)N1CCN(c2ccccn2)CC1)c1ccccn1
3.76
2. O=C(Nc1ccc(-c2nc3cc4ccccc4cc3[nH]2)cc1)c1cccc(Br)c1
46.2
3. O=C(Nc1ccc(Cl)c([N+](=O)[O-])c1)Nc1nc2ccccc2s1
12.3
4. CCc1ccc(-c2nnc(COc3ccc(-c4nc5ccc(C)cc5[nH]4)cc3OC)o2)cc1
5.01
5. CC(C)(C)[Si](C)(C)OCC1CCC(n2cnc3c(NC(=O)c4ccccc4)ncnc32)O1 (stereo not drawn)
33
6. O=C1/C(=C/c2cccc([N+](=O)[O-])c2)COc2ccc(O)c(O)c21
7.47
7. Cc1ccc(Nc2nc(NCCO)c3ccccc3n2)cc1C
33.8
8. C/C(=N/NC(=S)Nc1ccccc1Cl)c1ccccn1
40.2
9. S=c1[nH]nc(COc2ccc3c(c2)CCCC3)n1/N=C/c1ccc(Cl)cc1
39.7
10. Cc1[nH]c(=O)[nH]c(=O)c1N(CCF)CCCl
1660
11. COc1ccc(OC)c(C2CCc3nc4nc(N)nc(N)c4cc3C2)c1 (stereo not drawn)
16.1
12. Cc1ccc(NC(c2ccccc2)c2ccc3cccnc3c2O)cc1 (stereo not drawn)
61.3

----------
# Test system: EKVX NSCLC
# protocol_summary: NCI tumour cell line growth inhibition, 48 h
assay_metric: TGI (µM)

1. CCCCCCCCCOC(=O)c1cnc(Cl)cn1
41.6
2. CN(C)CCNC(=O)c1ccc(Nc2nc3ccccc3c3occc23)cc1
28.7
3. O=C(CCN1CCN(c2cccc(Cl)c2)CC1)N1CCc2c([nH]c3ccccc23)C1c1cccnc1 (stereo not given)
26.3
4. O=C1c2ccccc2-c2c1c1ccccc1c(=O)n2CCCNCCCn1c2c(c3ccccc3c1=O)C(=O)c1ccccc1-2
14.8
5. OCCN(CCO)N=Nc1ccc(-c2nc3ccccc3[nH]2)cc1
37.5

----------
TGI reference
# System: HOP-62 NSCLC
# protocol_summary: NCI tumour cell line growth inhibition, 48 h
Where a SMILES comes first, the peptide text is derived from it.
assay_metric: TGI

1) CN(C)c1nc(N(C)C)nc(N(C)C)n1
> 142 µM
2) CCOC(=O)CN1CCNCCN(CC(=O)OCC)CCNCC1
> 100 µM
3) CSc1ccc2c(cc1=O)[C@@H](NC(C)=O)CCc1cc(O)c(O)c(O)c1-2
32.3 µM
4) CC1NC(=O)CNC(=O)CNC(=O)C(Cc2ccc(O)cc2)NC(=O)C(C(C)C)NC(=O)C(C)NC1=O (stereo not given) (cyclo(GGAAVY); configuration not given here)
> 100 µM
5) O=C1C2C(C(=O)N1O)N(Cc1ccccc1)C(=O)N2Cc1ccccc1 (stereo not given)
> 100 µM
6) C=C1C(=O)O[C@@H]2C[C@@H]1CC[C@]1(C)O[C@H]1CC[C@@]1(C)O[C@@H]1CC[C@@]2(C)O
> 100 µM
7) CCCCCCCCCCCCN1C(C)=CS/C1=C\C=C\c1scc(C)[n+]1CCCCCCCCCCCC
28.7 µM
8) CSC(SC)=C1CC(=O)Nc2ccccc2C1=O
> 100 µM
9) COc1ccc2c(c1)C(N)CC2=O (stereo not given)
> 100 µM
10) COC(=O)c1c[nH]cc1CCc1c[nH]cc1C(=O)OC
> 100 µM

----------
# Test system: OVCAR-4 ovarian
# protocol_summary: NCI tumour cell line growth inhibition, 48 h
assay_metric: GI50

1) CCNC(=O)C[C@@H]1N=C(c2ccc(Cl)cc2)c2cc(OC)ccc2-n2c(C)nnc21
5.93 µM
2) Oc1ccc2ccccc2c1C=NCCCN=Cc1c(O)ccc2ccccc12
35.9 µM
3) O=C(/C=C/c1ccco1)c1ccc(Nc2nc(Nc3ccc(F)cc3)nc(Nc3ccc(Cl)cc3)n2)cc1
27.1 µM
4) CN1CCN(Cc2ccc(-c3cc4ncnc(Nc5ccc(OCc6cccc(F)c6)c(Cl)c5)c4s3)o2)CC1
3.69 µM
5) Oc1c(CN2CCC(N3CCOCC3)CC2)cc(Cc2cc(CN3CCC(N4CCOCC4)CC3)c(O)c3ncccc23)c2cccnc12
0.434 µM

----------
# System: DU-145 prostate
# protocol_summary: NCI tumour cell line growth inhibition, 48 h
assay_metric: TGI

1. COc1ccc(C(=O)Cn2c(C(=O)c3ccc(Cl)cc3)nc3ccccc32)cc1
> 100 µM
2. CN1CCCN2CCN(C)CCN(CC1)CC2
> 100 µM
3. NCc1ccc(-c2ccc(-c3ccc(-c4ccc(CN)s4)s3)s2)s1
> 100 µM
4. CCOC(=O)c1c(C)n(Cc2ccccc2)c(=O)c2ccccc2c(=O)c2c(=O)ccc(=O)c1=2
> 100 µM
5. Clc1ccc(-c2nn3c(CCCCCCCCc4nnc5sc(-c6ccc(Cl)cc6)nn45)nnc3s2)cc1
> 61.4 µM
6. Cc1ccc(Nc2nc(=S)[nH]c3[nH]ncc23)cc1
> 100 µM
7. COc1cccc(-c2nn(-c3ccccc3)cc2-c2ccnc(NCCNS(=O)(=O)c3ccc(Cl)cc3)c2)c1
> 100 µM
8. Cn1ccnc1C(=O)/C=C/c1ccc(CC(=O)Nc2ccc(Cl)cc2)cc1
> 25 µM
9. Cc1cc2c(c3c1c1ccccc1n3C)C(=O)C=CC2=O
> 100 µM

----------
# System: OVCAR-8 ovarian
# protocol_summary: NCI tumour cell line growth inhibition, 48 h
assay_metric: TGI

1. O=P(c1ccccc1)(c1ccccc1)C1CC=C(c2ccccc2)C2(CCCC2)C1 (stereo unspecified)
> 100 µM
2. C=C[C@@H]1OC(=O)O[C@H]1CO
> 100 µM
3. O=C(Nc1ccc(-c2nc3cc4ccccc4cc3[nH]2)cc1)c1cccc(Br)c1
18.9 µM
4. CCOC(=O)C1C(=O)CC(O)(OCC)C(C(=O)OCC)C1c1ccc(OC)cc1 (stereo unspecified)
> 100 µM
5. Oc1ccc(C(c2ccccc2)(c2ccccc2)c2ccccc2)cc1
35.9 µM
6. CCNC(=O)C[C@@H]1N=C(c2ccc(Cl)cc2)c2cc(OC)ccc2-n2c(C)nnc21
> 100 µM

----------
log10(TGI) reference
# System: KM12 colon
# protocol_summary: NCI tumour cell line growth inhibition, 48 h
assay_metric: log10(TGI) (log10 of the value in µM)

1) O=[N+]([O-])c1ccc(N2CCN(Cc3ccccc3)CC2)c2c1no[n+]2[O-]
0.48
2) O=C(Nc1ccc(Cl)c([N+](=O)[O-])c1)Nc1nc2ccccc2s1
0.92
3) C=C1C(=O)O[C@@H]2[C@H]3O[C@]3(C)CCC=C(C)CC[C@@H]12
1.73
4) CNc1ccccc1C(=O)N/N=C/C=C/c1ccccc1
1.70
5) Cc1ccc(/C=C2\CN(C)CC3=C2OC(N)=C(C#N)C3c2ccc(C)cc2)cc1 (stereo unspecified)
1.59

----------
# Tested on: DU-145 prostate
# protocol_summary: NCI tumour cell line growth inhibition, 48 h
assay_metric: TGI

1. C=C1C(=O)O[C@H]2[C@H]1CC/C(COC(=O)C(=O)c1c[nH]c3ccccc13)=C\CC[C@@]1(C)O[C@@H]21
11.8 µM
2. CC(=O)OCC1OC(On2ccccc2=S)C(OC(C)=O)C(OC(C)=O)C1OC(C)=O (stereo not given)
> 100 µM
3. COc1cc2oc(=O)cc(C)c2cc1[N+](=O)[O-]
> 100 µM
4. CCOC(=O)c1cc2cc(N(C(C)=O)C(C)=O)ccc2s1
> 100 µM
5. S=c1ssc2c3ssc(=S)c3n(Cc3ccccc3)c12
> 100 µM

----------
# Tested on: COLO 205 colon
# protocol_summary: NCI tumour cell line growth inhibition, 48 h
GI50 reference
assay_metric: GI50

1. COc1cccc(-c2nn(-c3ccccc3)cc2-c2ccnc(NCCNS(=O)(=O)c3ccc(Cl)cc3)c2)c1
3.33 µM
2. O=[N+]([O-])c1cnc(Sc2ccncn2)c([N+](=O)[O-])c1
1.98 µM
3. Oc1ccc(C(c2ccccc2)(c2ccccc2)c2ccccc2)cc1
15.5 µM
4. CN1CCN(Cc2ccc(-c3cc4ncnc(Nc5ccc(OCc6cccc(F)c6)c(Cl)c5)c4s3)o2)CC1
4.8 µM
5. Cn1ccnc1C(=O)/C=C/c1ccc(CC(=O)Nc2ccc(Cl)cc2)cc1
9.44 µM
6. Cc1[nH]c(=O)[nH]c(=O)c1N(CCF)CCCl
337 µM
7. CNc1ccccc1C(=O)N/N=C/C=C/c1ccccc1
0.671 µM
8. CC(C)C[C@H](NC(=O)[C@H](Cc1ccccc1)n1ccc(N2CCCCC2)cc1=O)B(O)O
0.853 µM
